From: patent US20230295324A1

TESTED TARGET: T1, cynomolgus monkey OX40 protein (Novoprotein, #CB17) (cynomolgus monkey)
T1 construct: Bought recombinant protein; also called cyno OX40
ASSAY SUMMARY: ELISA, coated cyno OX40 protein
Description: This example is intended to investigate the in vitro binding activity of the anti-OX40 HCAb monoclonal antibodies prepared in Example 1 to human and cynomolgus monkey OX40 proteins. […] The plate was added with a stop buffer (BBI life sciences, #E661006-0200) at 20 μL/well, and read for OD₄₅₀₋₆₅₀ values using a plate reader (Molecular Devices, model: SpectraMax Plus). The values were analyzed with Graphad 8.0 and plotted.

[
  {
    "BINDER": "PR002059 (antibody, human IgG1, V domains shown, no light chain; also called anti-OX40 HCAb antibody) VH: EVQLLESGGGLVQPGGSLRLSCVVSGLTFSSYAMSWVRQAPGKGREWVSAISGRGGSTFYADSVRGRFTISRDNSKNTLYLQMNSLRAEDTAVYYCANGMTGSTDVDYWGQGTLVTVSS",
    "EC50, pM": 77.4
  },
  {
    "BINDER": "PR002077 (antibody, human IgG1, V domains shown, no light chain; also called anti-OX40 HCAb antibody) VH: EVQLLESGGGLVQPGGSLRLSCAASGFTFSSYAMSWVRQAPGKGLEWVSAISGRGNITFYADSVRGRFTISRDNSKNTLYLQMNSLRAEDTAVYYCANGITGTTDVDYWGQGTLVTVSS",
    "EC50, pM": 441
  },
  {
    "BINDER": "PR002057 (antibody, human IgG1, V domains shown, no light chain; also called anti-OX40 HCAb antibody) VH: EVQLLESGGGLVQPGGSLRLSCAASGFIFSSYAMSWVRQAPGKGLEWVSAISGGGGSTFYADSVRGRFTISRDNSKNTLYLQMNSLRAEDTAVYYCADGMTGTTDVDYWGQGTLVTVSS",
    "EC50, pM": 133
  },
  {
    "BINDER": "PR002060 (antibody, human IgG1, V domains shown, no light chain; also called anti-OX40 HCAb antibody) VH: EVQLLESGGGLVQPGGSLRLSCAASGFTFSDYAMSWVRQAPGKGLEWVSAISGRGGSTYYADSVRGRFTISRDNSKNTLYLQMTSLRAEDTAVYYCANGMTGTTDVDYWGQGTLVTVSS",
    "EC50, pM": 93.8
  }
]
